target: HDAC6 human recombinant (Homo sapiens); construct: purchased Calbiochem 382180; experiment: HDAC enzyme activity inhibition (in vitro), HDAC6 assay; type: biochemical; conditions: samples at 0.1, 1, 10, 100 and 1000 nM; 37° C. 60 minutes; fluorescence Ex 390, Em 460; read-out: HDAC6 IC50
assay_readout: pIC50
On this scale, pIC50 is minus log10 of a concentration expressed in M (mol/L).

Look over these answered cases.
>>> measurement("CN1CCC(n2c(=O)n(Cc3ccc(-c4nnc(C(F)F)o4)cn3)c3cc(F)c(-c4ccc5c(cnn5C(=O)OC(C)(C)C)c4)cc32)CC1")
7.32
>>> measurement("O=c1oc2ccccc2n1Cc1ccc(-c2nnc(C(F)F)o2)cn1")
7.64
>>> measurement("CN1CC(N2Cc3ccccc3N(Cc3ccc(-c4nnc(C(F)F)o4)cn3)C2=O)C1")
6.48
>>> measurement("CN1CCC(N2Cc3ccccc3N(Cc3ccc(-c4nnc(C(F)F)o4)cc3F)C2=O)CC1")
6.77
>>> measurement("Cn1c(=O)n(Cc2ccc(-c3nnc(C(F)F)o3)cn2)c2cc(F)c(N3CCN(CC(F)(F)C(F)F)CC3)cc21")
6.97

Turning now to a further record.
-- ask Provide measured pIC50 value, entry: CN1CCC(n2c(=O)n(Cc3ccc(-c4nnc(C(F)F)o4)cn3)c3c(F)cccc32)CC1
-- reply 7.51

* * *

Molecular target: HDAC6 human recombinant (Homo sapiens, UniProt Q9UBN7)
Construct: purchased Calbiochem 382180
Sequence (Q9UBN7 1-1215): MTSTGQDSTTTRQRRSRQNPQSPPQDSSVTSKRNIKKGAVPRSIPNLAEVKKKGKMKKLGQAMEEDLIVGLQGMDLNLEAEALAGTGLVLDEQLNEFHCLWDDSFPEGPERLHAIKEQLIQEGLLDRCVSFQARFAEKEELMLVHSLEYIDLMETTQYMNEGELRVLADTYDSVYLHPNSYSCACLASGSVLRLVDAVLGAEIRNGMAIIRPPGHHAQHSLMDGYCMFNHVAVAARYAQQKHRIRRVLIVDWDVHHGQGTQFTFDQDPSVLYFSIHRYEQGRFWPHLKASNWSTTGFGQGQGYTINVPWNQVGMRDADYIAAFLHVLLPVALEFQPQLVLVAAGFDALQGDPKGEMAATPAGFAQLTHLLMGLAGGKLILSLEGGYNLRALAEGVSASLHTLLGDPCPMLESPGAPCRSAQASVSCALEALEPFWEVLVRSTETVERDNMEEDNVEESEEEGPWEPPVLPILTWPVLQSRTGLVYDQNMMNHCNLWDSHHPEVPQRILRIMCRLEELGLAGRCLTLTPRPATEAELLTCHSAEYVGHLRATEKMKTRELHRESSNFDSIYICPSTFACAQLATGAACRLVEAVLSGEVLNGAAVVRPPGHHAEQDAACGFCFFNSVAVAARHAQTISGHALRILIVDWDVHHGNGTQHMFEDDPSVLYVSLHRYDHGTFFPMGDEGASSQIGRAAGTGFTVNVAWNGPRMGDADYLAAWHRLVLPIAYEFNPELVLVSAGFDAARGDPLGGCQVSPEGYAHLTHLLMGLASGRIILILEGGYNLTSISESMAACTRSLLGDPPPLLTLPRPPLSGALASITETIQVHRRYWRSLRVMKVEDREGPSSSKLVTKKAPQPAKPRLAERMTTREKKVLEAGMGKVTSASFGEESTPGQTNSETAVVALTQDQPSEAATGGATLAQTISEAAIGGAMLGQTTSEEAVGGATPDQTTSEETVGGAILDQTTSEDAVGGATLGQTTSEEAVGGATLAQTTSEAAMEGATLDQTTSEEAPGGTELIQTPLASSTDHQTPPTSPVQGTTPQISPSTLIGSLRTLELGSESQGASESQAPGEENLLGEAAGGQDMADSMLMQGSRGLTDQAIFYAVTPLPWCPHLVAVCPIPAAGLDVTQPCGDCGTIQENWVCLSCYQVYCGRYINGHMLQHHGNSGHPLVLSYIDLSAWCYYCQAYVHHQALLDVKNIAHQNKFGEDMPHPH
Assay: HDAC enzyme activity inhibition (in vitro), HDAC6 assay
Assay type: biochemical
Conditions: samples at 0.1, 1, 10, 100 and 1000 nM; 37° C. 60 minutes; fluorescence Ex 390, Em 460; read-out: HDAC6 IC50
// returns Criterion not met unless IC50 is strictly below 0.1 µM, in which case Criterion met

>>> label_class("CC(=O)N1CCC(n2c(=O)n(Cc3ccc(-c4nnc(C(F)F)o4)cn3)c3ccc(Cl)cc32)CC1")
"Criterion met"
>>> label_class("CC(C)N1CCC(c2ccc3c(c2)oc(=O)n3Cc2ccc(-c3nnc(C(F)F)o3)cn2)CC1")
"Criterion not met"
>>> label_class("O=c1n(Cc2ccc(-c3nnc(C(F)F)o3)cn2)c2cc(F)c(N3CCN(C4COC4)CC3)cc2n1C1COC1")
"Criterion met"

-- ask Say whether its IC50 is strictly beneath 0.1 µM. Entry: O=c1n(Cc2ccc(-c3nnc(C(F)F)o3)cn2)c2ccc(F)cc2n1C1CCN(C2CCC2)CC1
-- reply Criterion not met

-- ask Regarding CS(=O)(=O)N1CCC(n2c(=O)n(Cc3ccc(-c4nnc(C(F)F)o4)cc3F)c3ncccc32)CC1 , kindly confirm whether its IC50 is beneath 0.1 µM.
-- reply Criterion not met

-- ask Does the reported IC50 of O=c1n(Cc2ccc(-c3nnc(C(F)F)o3)cn2)c2cc(F)c(-c3cccnc3)cc2n1[C@@H]1CCN(C2COC2)C1 stay below 0.1 µM?
-- reply Criterion met

-- ask Does CN1CC(n2c(=O)n(Cc3ccc(-c4nnc(C(F)F)o4)cn3)c3ccccc32)C1 have IC50 strictly under 0.1 µM?
-- reply Criterion not met

Attribution: patent US20230092890A1
